Attribution: patent US6440986B2

Tested on: MT-4 cells (mock-infected)
Assay: cytotoxicity in mock-infected MT-4 cells (MTT)
Type: cell-based
Conditions: 50% cytotoxic concentration; reduces absorbance of mock-infected MT-4 control by 50%; MTT; read-out: CC50
attribute-measured: CC50

chem-smiles	CC50
Nc1cc(Cc2c(Cl)cccc2Cl)nc(Nc2ccc(Br)cn2)n1	> 100 µM
Nc1nc(Cc2c(Cl)cccc2Cl)cc(Nc2ccc(Cl)cc2)n1	> 20 µM
Cc1c(Cc2c(Cl)cccc2Cl)nc(N)nc1Nc1ccc(Br)cc1	> 100 µM

Kindly consider the entry below.
*Q* Given the entry `N#Cc1ccc(Nc2cc(Cc3c(Cl)cccc3Cl)nc(NCCCCO)n2)cc1` , report its measured CC50.
*A* > 100 µM
